Field: protein stability index. Provide a value for each of the sequences that follow.
Assay: protein stability index of a GFP-peptide fusion (yeast GPS) (PSI 1-4); higher = more stable; sorted into four equal gates, so the index is relative within each strain
Conditions: ubr1∆
Give bare numbers.

Past entries and their recorded results:
>  <Primary Sequence>
ETKVDELRYQSHILNSH [DSN1]

>  <protein stability index>
3

$$$$
>  <Primary Sequence>
LERYYKEQADIYAKQQE [ARP7]

>  <protein stability index>
3.42

$$$$
>  <Primary Sequence>
IESALKSKLDQDSTSEN [RPN2]

>  <protein stability index>
2.95

$$$$
>  <Primary Sequence>
GFGLVYNSVAEAKKFEP [RPS24A]

>  <protein stability index>
2.8

$$$$
>  <Primary Sequence>
ELGISLEHPYGKEVEVL [SNU114]

>  <protein stability index>
2.14

$$$$
>  <Primary Sequence>
TETALMNLKKELQGYIE [SRB5]

>  <protein stability index>
2.94

$$$$
>  <Primary Sequence>
MSGGKGGKAGSAAKASQ [HTA1]

>  <protein stability index>
3.24

$$$$
>  <Primary Sequence>
TAFATEFFVQVLTHESL [DLS1]

>  <protein stability index>
2.02

$$$$
>  <Primary Sequence>
GLSVTQKVFVRSRNGGA [DIS3]

>  <protein stability index>
1.62

$$$$
>  <Primary Sequence>
KQFFQMTPLLVNCLELL [PCI8]

>  <protein stability index>
1.23

$$$$

For each of the items listed, what is its protein stability index?
1. EEISFSLSEGCDILVAT [PRP28]
2. NFNPDNGFAPISEVMED [FAS1]
3. AEQSFDQQSPWLLRLEL [RPO21]
4. KQQGVGLPTDAYVAIEQ [RPN8]
5. FDSTAFNATVDETKGFD [MED2]
6. IGQAVQPKRNLSRYVKW [RPL8A]
7. QNDELKFQGVLESEAQK [RPC34]
8. SPSPILLTSAGCKNGSF [NUT1]

Response:
2.96
3.17
3.11
3.19
3.21
2.66
2.93
2.41

* * *

Test: protein stability index of a GFP-peptide fusion (yeast GPS) (PSI 1-4); higher = more stable; sorted into four equal gates, so the index is relative within each strain
Conditions: ubr1∆
Quantity Measured: protein stability index
Answers are plain numbers.

>  <Primary Sequence>
SEETQFKYVEDRFPLKL [ITC1]

>  <Result Number>
3.01

$$$$
>  <Primary Sequence>
DLTQLLEKERSILDDIK [SMC4]

>  <Result Number>
3.16

$$$$
>  <Primary Sequence>
TPAFGSNNTGNTAFGNS [YJL041W/NSP1]

>  <Result Number>
3.08

$$$$

For each of the items listed, what is its protein stability index?
1. HYGNEHIRRMVPLAMGI [RPN1]
2. MSTESALSYAALILADS [RPP1A]
3. FQAHEITSFLLSKMENV [NAS6]
4. IGLRQFQQIQYENKQLY [POP1]
5. SLVEVVFYRGMTMQVAV [FAS1]
6. SVSMLLQYYILEYMNTA [RRI2]

Response:
[1.47, 1.83, 1.69, 2.79, 1.99, 2.19]

For each of the items listed, what is its protein stability index?
1. QLLQRLNDMNTEISGLK [SMC3]
2. VANSTKAAFIRVNGSEF [RPT3]
3. TKGMITNLQRNVDRLYK [NUT2]
4. RRTYNTLEDKFLLLAVN [ISW2]
5. LRLKPGRKYTTLGKLST [RPL16B]
6. NEHSTSYTFRSEKGLLS [FAS1]
7. PTITLDDVYRPAAESKI [SNF5]
8. DEGKEIPATIFDKVIYH [TAF14]

Response:
[3.3, 1.44, 3.24, 1.28, 2.97, 2.46, 2.98, 3.02]

* * *

Experiment: protein stability index of a GFP-peptide fusion (yeast GPS) (PSI 1-4); higher = more stable; sorted into four equal gates, so the index is relative within each strain
Details: doa10∆
Field: protein stability index. Provide a value for each of the sequences that follow.
Numbers only.

For each of the items listed, what is its protein stability index?
1. DMAILERYYELAFDKLN [ARP7]
2. SLEQRQEVTKFAKANIG [RPN4]
3. DLKLLFNTEAEQTVSAV [RGR1]
4. SQSACREMALCRELHNK [SSN3]
5. VLKSHSNDFEEGSTIRY [YMR129W/POM152]
6. LRKIDMLQKKLVEVEDE [SRB7]

Response:
[1.3, 2.82, 2.84, 2.42, 2.44, 3.06]

* * *

Experiment: protein stability index of a GFP-peptide fusion (yeast GPS) (PSI 1-4); higher = more stable; sorted into four equal gates, so the index is relative within each strain
Conditions: san1∆
Decision: protein stability index compared against 3; not below it gives t, below it gives f.

Recorded results for 5 sequences are shown here.
>  <Primary Sequence>
AEQSFDQQSPWLLRLEL [RPO21]

>  <Assigned Class>
t

$$$$
>  <Primary Sequence>
WQELARSTDEFNGAQLK [RPT5]

>  <Assigned Class>
f

$$$$
>  <Primary Sequence>
YIKSATLYSVKSKEDMK [SNU114]

>  <Assigned Class>
t

$$$$
>  <Primary Sequence>
QDLPKINDKRANLMLVM [SRB4]

>  <Assigned Class>
f

$$$$
>  <Primary Sequence>
YSMISLQNCCIIDVGTH [ARP9]

>  <Assigned Class>
f

$$$$

We now examine a further sequence.
Request: Entry ETDNEMNGNGKPGIPRG [SIR3] : is its protein stability index no less than 3?
Response: t

* * *

Test: protein stability index of a GFP-peptide fusion (yeast GPS) (PSI 1-4); higher = more stable; sorted into four equal gates, so the index is relative within each strain
Conditions: doa10∆
Decision: protein stability index compared against 3; not below it gives yes, below it gives no.

>  <Primary Sequence>
IASLERELILAKKQNYK [YCG1]

>  <Assigned Class>
no

$$$$

Request: Entry DLTQLLEKERSILDDIK [SMC4] : is its protein stability index no less than 3?
Response: yes

Request: Entry MGGIREKKAEYFAKLRE [RPP0] : is its protein stability index no less than 3?
Response: yes

Request: Entry FPIALQWTGGRGGGHHS [FAS1] : is its protein stability index no less than 3?
Response: no

Request: Entry VSKSEPKFFLGEENRVR [QCR2] : is its protein stability index no less than 3?
Response: yes

* * *

Test: protein stability index of a GFP-peptide fusion (yeast GPS) (PSI 1-4); higher = more stable; sorted into four equal gates, so the index is relative within each strain
Conditions: doa10∆
Decision: protein stability index compared against 2; not below it gives MET, below it gives NOT MET.

>  <Primary Sequence>
TQAKKLYHHTTKTILSG [SRP72]

>  <Assigned Class>
MET

$$$$
>  <Primary Sequence>
MSPFLRKVVKPSSLNSD [SRB4]

>  <Assigned Class>
MET

$$$$
>  <Primary Sequence>
NVVEIWVFSYLRWFELK [SIR3]

>  <Assigned Class>
NOT MET

$$$$
>  <Primary Sequence>
GAIDEALEEAKLSDNIS [YDL116W/NUP84]

>  <Assigned Class>
MET

$$$$
>  <Primary Sequence>
PFFSSNTSSLQSFQNPF [YIL149C/MLP2]

>  <Assigned Class>
MET

$$$$
>  <Primary Sequence>
GMNNASAGLFGSKPAGG [YGL172W/NUP49]

>  <Assigned Class>
MET

$$$$
>  <Primary Sequence>
TLSYDDISAAIVHSSDG [DLS1]

>  <Assigned Class>
MET

$$$$
>  <Primary Sequence>
ITKLHLDKDRKALIQRK [RPL26A]

>  <Assigned Class>
MET

$$$$
>  <Primary Sequence>
LLAKAVANQTSATFLRI [RPT2]

>  <Assigned Class>
MET

$$$$
>  <Primary Sequence>
GPIKTPVGACATSVESV [FAS2]

>  <Assigned Class>
NOT MET

$$$$

Request: Entry MARYGATSTNPAKSASA [RPL17A] : is its protein stability index no less than 2?
Response: MET

* * *

Test: protein stability index of a GFP-peptide fusion (yeast GPS) (PSI 1-4); higher = more stable; sorted into four equal gates, so the index is relative within each strain
Details: doa10∆
Decision: protein stability index compared against 2; not below it gives yes, below it gives no.

Request: Entry HPTIYESLPQYVDFVPM [POP4] : is its protein stability index no less than 2?
Response: no

Request: Entry NFNPDNGFAPISEVMED [FAS1] : is its protein stability index no less than 2?
Response: yes

Request: Entry DMLEHINLAMNESSLAL [SRB4] : is its protein stability index no less than 2?
Response: no

Request: Entry AHTGATPIAGRFTPGSF [RPS0A] : is its protein stability index no less than 2?
Response: yes

Request: Entry IRRYCDVVAHRQLAGAI [DIS3] : is its protein stability index no less than 2?
Response: no
